Sourced from ChEMBL document CHEMBL3098030

# testSystem: Eukaryotic translation initiation factor 2-alpha kinase 1 (Homo sapiens) (UniProt Q9BQI3)
# Sequence (Q9BQI3 whole entry): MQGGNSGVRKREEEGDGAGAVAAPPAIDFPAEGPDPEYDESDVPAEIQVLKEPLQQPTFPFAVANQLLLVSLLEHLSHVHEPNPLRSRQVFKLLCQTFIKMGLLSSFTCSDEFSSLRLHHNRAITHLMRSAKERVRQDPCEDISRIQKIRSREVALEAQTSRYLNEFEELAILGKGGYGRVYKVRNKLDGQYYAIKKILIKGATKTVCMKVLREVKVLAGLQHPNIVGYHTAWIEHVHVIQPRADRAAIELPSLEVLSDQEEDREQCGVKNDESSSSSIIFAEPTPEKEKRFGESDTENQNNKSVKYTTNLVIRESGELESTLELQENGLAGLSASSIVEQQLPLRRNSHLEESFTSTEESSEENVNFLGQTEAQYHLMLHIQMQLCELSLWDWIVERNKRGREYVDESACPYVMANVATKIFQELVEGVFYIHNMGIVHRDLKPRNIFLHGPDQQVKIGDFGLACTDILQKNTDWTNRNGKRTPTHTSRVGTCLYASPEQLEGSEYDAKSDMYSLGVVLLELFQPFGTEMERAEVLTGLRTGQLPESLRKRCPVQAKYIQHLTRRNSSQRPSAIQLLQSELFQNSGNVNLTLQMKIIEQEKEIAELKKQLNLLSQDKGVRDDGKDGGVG
# runDescription: Activation of HRI in human CRL-2813-pBISA-DL(ATF-4) reporter cells assessed as reduction of ternary complex at 30 uM by dual-luciferase reporter gene assay relative to control
I'd appreciate it if you marked entries Met when Ratio is lower than 7 and Not met when it is not.

Worked set:
>>> class("O=C(Nc1ccccc1)N[C@H]1CC[C@H](Oc2ccc(F)cc2)CC1")
"Met"
>>> class("O=C(Nc1ccc(Br)cc1)N[C@H]1CC[C@H](Oc2ccc(F)cc2)CC1")
"Met"
>>> class("O=C(Nc1cccc(C(F)(F)F)c1)N[C@H]1CC[C@H](Oc2ccc(Cl)cc2)CC1")
"Met"

Task: Identify whether the molecule O=C(Nc1ccc(C(F)(F)F)cc1)N[C@H]1CC[C@H](Oc2ccc(F)cc2)CC1 records Ratio below 7.
Output: Not met

Task: Lab log: compare recorded Ratio with 7; is it strictly lower for O=C(Nc1cccc(C(F)(F)F)c1)N[C@H]1CC[C@@H](Oc2ccc(F)cc2)CC1 ?
Output: Not met
